Target: Orexin/Hypocretin receptor type 1 (Homo sapiens)
Sequence (O43613 whole entry): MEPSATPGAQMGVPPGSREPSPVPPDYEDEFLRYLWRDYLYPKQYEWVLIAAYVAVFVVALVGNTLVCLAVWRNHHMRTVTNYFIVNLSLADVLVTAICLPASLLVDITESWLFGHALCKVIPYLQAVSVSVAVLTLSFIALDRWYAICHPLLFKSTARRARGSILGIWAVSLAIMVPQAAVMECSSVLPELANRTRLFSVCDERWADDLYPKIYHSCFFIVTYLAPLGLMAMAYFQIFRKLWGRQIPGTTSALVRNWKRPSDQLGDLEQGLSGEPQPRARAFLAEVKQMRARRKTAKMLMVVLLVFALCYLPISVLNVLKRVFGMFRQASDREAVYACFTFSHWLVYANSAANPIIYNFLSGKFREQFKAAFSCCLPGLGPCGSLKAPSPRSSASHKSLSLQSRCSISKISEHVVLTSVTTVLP
Experiment: Radioligand Binding: Chinese ovary cells (CHO) stably expressing human orexin 1 receptor (Genebank accession number […]) were grown to confluency in DMEM/F12 (Gibco, Cat #11039), 10% FBS, 1× Pen/Strep, 600 μg/mL G418 media on 150 cm2 tissue culture plates, washed with 5 mM EDTA in PBS (HyClone Dulbecco's Phoshpate Buffered Saline 1× with Calcium and Magnesium, Cat #SH30264.01, hereafter referred to simply as PBS) and scraped into 50 ml tubes. After centrifugation (2K xG, 10 min at 4° C.), the supernatant was aspirated and the pellets frozen and stored at −80° C. Cells were resuspended in PBS in the presence of 1 tablet of protease inhibitor cocktail (Roche, Cat. #11836145001) per 50 mL.
measured.attribute: Ki (µM)
Kindly answer with a numeric value in µM, unit omitted.

Checklist item: Ki tested on Orexin/Hypocretin receptor type 1 (Homo sapiens), entry `Cc1cc(C)nc(N2C[C@@H]3CCN(C(=O)c4ccccc4-c4nc(C)no4)C[C@@H]32)n1` , value?
1.59

====

Molecular target: Orexin receptor type 2 (Homo sapiens)
Sequence (O43614 whole entry): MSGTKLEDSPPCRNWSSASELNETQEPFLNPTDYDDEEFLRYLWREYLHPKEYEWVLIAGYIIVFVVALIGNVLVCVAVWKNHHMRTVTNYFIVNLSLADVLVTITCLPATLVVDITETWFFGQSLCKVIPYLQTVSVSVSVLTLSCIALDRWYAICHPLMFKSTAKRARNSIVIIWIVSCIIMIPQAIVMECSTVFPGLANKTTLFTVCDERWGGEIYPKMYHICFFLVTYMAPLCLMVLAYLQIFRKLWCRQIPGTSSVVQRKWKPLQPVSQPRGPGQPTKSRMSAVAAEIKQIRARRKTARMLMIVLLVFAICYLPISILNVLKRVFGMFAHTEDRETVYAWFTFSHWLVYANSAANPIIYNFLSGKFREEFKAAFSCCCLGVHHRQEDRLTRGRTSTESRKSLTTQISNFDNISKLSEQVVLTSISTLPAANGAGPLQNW
Assay: Radioligand Binding: HEK293 stably expressing human orexin-2 receptor (Genebank accession number NM 001526) were grown to confluency in DMEM/F12 (Gibco, Cat #11039), in DMEM, 10% FBS, 1× Pen/Strep, 1× NaPyruvate, 1×HEPES, 600 ug/ml G418 media on 150 cm2 tissue culture plates, washed with 5 mM EDTA in PBS (HyClone Dulbecco's Phosphate Buffered Saline 1× with Calcium and Magnesium, Cat #SH30264.01, hereafter referred to simply as PBS) and scraped into 50 ml tubes. After centrifugation (2K xG, 10 min at 4° C.), the supernatant was aspirated and the pellets frozen and stored at −80° C. Cells were resuspended in PBS in the presence of 1 tablet of protease inhibitor cocktail (Roche, Cat. #11836145001) per 50 mL.
measured.attribute: pKi
For clarity, pKi is expressed as the negative log10 of concentration in mol/L.

Entry under review: `Cc1cc(C)nc(N2C[C@@H]3CCN(C(=O)c4ccccc4-c4nc(C)no4)C[C@@H]32)n1` . Reported pKi?
7.23
